Hello, the source for this data is ChEMBL document CHEMBL1140943, in case you need it.

Molecular target: Purine nucleoside phosphorylase (Homo sapiens)
Sequence (P00491 whole entry): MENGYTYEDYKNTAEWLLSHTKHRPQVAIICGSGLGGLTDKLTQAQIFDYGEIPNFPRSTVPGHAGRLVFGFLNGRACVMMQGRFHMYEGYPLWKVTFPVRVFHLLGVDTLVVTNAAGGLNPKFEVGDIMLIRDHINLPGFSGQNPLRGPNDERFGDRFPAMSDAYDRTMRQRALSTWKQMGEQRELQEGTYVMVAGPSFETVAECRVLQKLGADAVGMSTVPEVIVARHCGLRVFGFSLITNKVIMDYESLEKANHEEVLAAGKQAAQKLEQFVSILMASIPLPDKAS
Parameter Ki: see the listing below.
Give the value, in units of pM, as a plain number.

Please review the following examples before continuing.
smi: O=c1[nH]cnc2c(CN3C[C@H](CO)[C@@H](O)C3)c[nH]c12
reported-value: 8.5
//
smi: Nc1nc2c(CN[C@H](CO)[C@H](O)CO)c[nH]c2c(=O)[nH]1
reported-value: 3.4

Now consider a different compound.
Lab note: Purine nucleoside phosphorylase (Homo sapiens) assay, enter Ki for `Nc1nc2c(CNC(CO)CO)c[nH]c2c(=O)[nH]1` here
2.1
